B1: ZNF277 (parent)
chain: ILREELQKQRLREILEQQQQERND

variants of: B1; assay: protein stability index of a GFP-peptide fusion (GPS, HEK-293T) (PSI 1-6); higher = more stable; details: c terminus: a fixed tail appended;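 further: lentivirally expressed fusions sorted by FACS into six bins by GFP to DsRed ratio, PSI derived from sequencing read proportions per bin multiplied by bin number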
Please respond with reported protein stability index for every item in the list.
Numbers only.

I14H ... 3.89

Please give protein stability index, item by item, for the list that follows.
1. N23P
2. E4G

-- reply
1: 4.47; 2: 4.89
